experiment: NCI Yeast Anticancer Drug Screen. Data for the bub3 strain (AID 167); conditions: S. cerevisiae bub3 mutant strain, at 50.0 µM
About 79,000 compounds went through this panel and 15% of them were active in at least one assay; those are over-represented in the sample as a whole. Activity calls are given as the source filed them. Cut-off read from the data, not from the text of the source: active = growth inhibition above about 70%; inactive = the rest.
Labels: YES for active, NO for inactive

{"MOLECULE": "c1ccc(CN2COc3ccc4c5c(ccc4c3C2)OCN(Cc2ccccc2)C5)cc1", "CLASS_LABEL": "NO"}
{"MOLECULE": "COc1ccc(/C=C/C(=O)c2cc(C(=O)O)c(OC)cc2OC)cc1OC", "CLASS_LABEL": "NO"}
{"MOLECULE": "Nc1cc2c(cc1I)-c1ccccc1C2O (stereo not given)", "CLASS_LABEL": "NO"}
{"MOLECULE": "CC(=O)OCC(=O)C1(O)CCC2C3CCC4=CC(=O)CCC4(C)C3(SC#N)CC(=O)C21C (stereo not given)", "CLASS_LABEL": "NO"}
{"MOLECULE": "ClC(Cl)(Cl)SSC(=Nc1ccccc1)SSC(Cl)(Cl)Cl", "CLASS_LABEL": "NO"}
{"MOLECULE": "CC1(C)N=C(c2ccccc2)SC1(C)C", "CLASS_LABEL": "NO"}
{"MOLECULE": "CSCCC(NCc1c(O)ccc2c(C)cc(=O)oc12)C(=O)O (stereo not given)", "CLASS_LABEL": "NO"}
{"MOLECULE": "CCCCCCC(=O)OCC", "CLASS_LABEL": "NO"}
{"MOLECULE": "O=C1C2C3C=CC(O3)C2C(=O)N1CCN1CCCCC1 (stereo not given)", "CLASS_LABEL": "NO"}
{"MOLECULE": "O=P(O)(O)OP(=O)(O)OCC1OC(n2cnc3c(=S)nc[nH]c32)C(O)C1O (stereo not given)", "CLASS_LABEL": "NO"}
{"MOLECULE": "COc1nc(Cl)nc(C(N)=O)c1N", "CLASS_LABEL": "NO"}
{"MOLECULE": "Oc1ccccc1CNc1ncc(Cl)cc1Cl", "CLASS_LABEL": "NO"}
{"MOLECULE": "CC(=O)c1ccc(OCc2ccccc2)cc1OCc1ccccc1", "CLASS_LABEL": "NO"}
{"MOLECULE": "Cc1cc(C)n(-c2ccc([N+](=O)[O-])cn2)n1", "CLASS_LABEL": "NO"}
{"MOLECULE": "CC(=O)N(c1ccc(NC(=O)c2ccc(N3C(=O)c4ccccc4C3=O)cc2[N+](=O)[O-])cc1)c1cc[n+](C)cc1", "CLASS_LABEL": "NO"}
{"MOLECULE": "CC(=O)N1c2cc(N=NN(C)C)ccc2NC(=O)CC1C (stereo not given)", "CLASS_LABEL": "NO"}
{"MOLECULE": "O=S(=O)(CCN1CCCCC1)c1ccc(F)cc1", "CLASS_LABEL": "NO"}
{"MOLECULE": "COc1ccc(C2S/C(=C\\c3cccc(OC)c3)C(=O)N2NC(=O)Cc2ccccc2)cc1 (stereo not given)", "CLASS_LABEL": "NO"}
{"MOLECULE": "CC(C)=NNC(=O)c1n[nH]c(C)c1N=NN(C)C", "CLASS_LABEL": "NO"}
{"MOLECULE": "CCCCCCCCCCCCCCCCS(=O)(=O)N/N=c1\\cc(-c2ccccc2Cl)c2ccccc2n1C", "CLASS_LABEL": "NO"}
{"MOLECULE": "N#C/C(=C\\Nc1ccccn1)C(=O)c1ccco1", "CLASS_LABEL": "NO"}
{"MOLECULE": "CCC(C)C(=O)OC1C(=O)OC2CC3C(C)=CC(=O)C(O)C3(C)C3C4(O)OCC23C1C(C)C4O (stereo not given)", "CLASS_LABEL": "YES"}
{"MOLECULE": "C/C(CC(O)(C(F)(F)F)C(F)(F)F)=N\\NC(N)=O", "CLASS_LABEL": "NO"}
{"MOLECULE": "CCCCNc1ccc2c(C)c(Cc3ccccc3)c(=O)oc2c1", "CLASS_LABEL": "NO"}
{"MOLECULE": "COc1cc(Br)c(C=Nc2cccc3cc(OC)c(OC)cc23)cc1OC", "CLASS_LABEL": "NO"}
{"MOLECULE": "c1ccc2cc(CNCCCCNCCCNCc3ccc4ccccc4c3)ccc2c1", "CLASS_LABEL": "YES"}
{"MOLECULE": "NC1CCCCCC1", "CLASS_LABEL": "NO"}
{"MOLECULE": "N#CC(C#N)=C(N)/C(C#N)=C/c1ccc2[nH]ccc2c1", "CLASS_LABEL": "NO"}
{"MOLECULE": "COc1cc(C)cc2c(-c3c(O)cc(O)c4c3CC(C)N[C@H]4C)cc(-c3cc(-c4c(O)cc(O)c5c4CC(C)N[C@H]5C)c4cc(C)cc(OC)c4c3O)c(O)c12 (stereo not given in full)", "CLASS_LABEL": "NO"}
{"MOLECULE": "CCC(c1ccc(O)cc1)c1cc2c(cc1OCCO)OCO2 (stereo not given)", "CLASS_LABEL": "NO"}
{"MOLECULE": "O=c1c2cc([N+](=O)[O-])ccc2n2n1Cc1ccccc1CC2", "CLASS_LABEL": "NO"}
{"MOLECULE": "COc1ccc(C2C(Cl)C(=O)N2NC(=O)c2ccccc2O)cc1 (stereo not given)", "CLASS_LABEL": "NO"}
{"MOLECULE": "O=C1CCc2ccccc2-c2ccccc21", "CLASS_LABEL": "NO"}
{"MOLECULE": "C[Si](C)(C)Oc1cc(N=NNC2=CC(=O)c3ccccc3C2=O)c(O)c2ccccc12", "CLASS_LABEL": "NO"}
{"MOLECULE": "CCCCN(CCCC)S(=O)(=O)N1CCOCC1", "CLASS_LABEL": "NO"}
